test system: HeLa Kyoto; assay: thermal stability score vs G1/S (z-score of summed log2 fold changes over temperatures); higher = more thermally stable than in G1/S; details: cell cycle stage: early G1 (4.5 h after nocodazole release);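 note: synchronized HeLa Kyoto cells, proteins quantified by TMT10plex mass spectrometry, three biological replicates, mitosis taken 0.5 h after nocodazole release, G1/S directly after double thymidine block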
Decision: thermal stability score compared against -0.2; not below it gives label 1, below it gives label 0.

{"query sequence": "MVQLRPRASRAPASAEAMVDEGQLASEEEEAEHGLLLGQPSSGAAAEPLEEDEEGDDEFDDEAPEELTFASAQAEAREEERRVRETVRRDKTLLKEKRKRREELFIEQKKRKLLPDTILEKLTTASQTNIKKSPGKVKEVNLQKKNEDCEKGNDSKKVKVQKVQSVSQNKSYLAVRLKDQDLRDSRQQAAQAFIHNSLYGPGTNRTTVNKFLSLANKRLPVKRAAVQFLNNAWGIQKKQNAKRFKRRWMVRKMKTKK [NOL7]", "label value": "label 0"}
{"query sequence": "MVDKKLVVVFGGTGAQGGSVARTLLEDGTFKVRVVTRNPRKKAAKELRLQGAEVVQGDQDDQVIMELALNGAYATFIVTNYWESCSQEQEVKQGKLLADLARRLGLHYVVYSGLENIKKLTAGRLAAAHFDGKGEVEEYFRDIGVPMTSVRLPCYFENLLSHFLPQKAPDGKSYLLSLPTGDVPMDGMSVSDLGPVVLSLLKMPEKYVGQNIGLSTCRHTAEEYAALLTKHTRKVVHDAKMTPEDYEKLGFPGARDLANMFRFYALRPDRDIELTLRLNPKALTLDQWLEQHKGDFNLL [NMRAL1]", "label value": "label 1"}
{"query sequence": "MIPLLLAALLCVPAGALTCYGDSGQPVDWFVVYKLPALRGSGEAAQRGLQYKYLDESSGGWRDGRALINSPEGAVGRSLQPLYRSNTSQLAFLLYNDQPPQPSKAQDSSMRGHTKGVLLLDHDGGFWLVHSVPNFPPPASSAAYSWPHSACTYGQTLLCVSFPFAQFSKMGKQLTYTYPWVYNYQLEGIFAQEFPDLENVVKGHHVSQEPWNSSITLTSQAGAVFQSFAKFSKFGDDLYSGWLAAALGTNLQVQFWHKTVGILPSNCSDIWQVLNVNQIAFPGPAGPSFNSTEDHSKWCVSPKGPWTCVGDMNRNQGEEQRGGGTLCAQLPALWKAFQPLVKNYQPCNGMARKPSRAYKI [DNASE2]", "label value": "label 0"}
{"query sequence": "MSKPPPKPVKPGQVKVFRALYTFEPRTPDELYFEEGDIIYITDMSDTNWWKGTSKGRTGLIPSNYVAEQAESIDNPLHEAAKRGNLSWLRECLDNRVGVNGLDKAGSTALYWACHGGHKDIVEMLFTQPNIELNQQNKLGDTALHAAAWKGYADIVQLLLAKGARTDLRNIEKKLAFDMATNAACASLLKKKQGTDAVRTLSNAEDYLDDEDSD [OSTF1]", "label value": "label 0"}
{"query sequence": "MTGLYELVWRVLHALLCLHRTLTSWLRVRFGTWNWIWRRCCRAASAAVLAPLGFTLRKPPAVGRNRRHHRHPRGGSCLAAAHHRMRWRADGRSLEKLPVHMGLVITEVEQEPSFSDIASLVVWCMAVGISYISVYDHQGIFKRNNSRLMDEILKQQQELLGLDCSKYSPEFANSNDKDDQVLNCHLAVKVLSPEDGKADIVRAAQDFCQLVAQKQKRPTDLDVDTLASLLSSNGCPDPDLVLKFGPVDSTLGFLPWHIRLTEIVSLPSHLNISYEDFFSALRQYAACEQRLGK [NUS1]", "label value": "label 0"}
{"query sequence": "MIKAILIFNNHGKPRLSKFYQPYSEDTQQQIIRETFHLVSKRDENVCNFLEGGLLIGGSDNKLIYRHYATLYFVFCVDSSESELGILDLIQVFVETLDKCFENVCELDLIFHVDKVHNILAEMVMGGMVLETNMNEIVTQIDAQNKLEKSEAGLAGAPARAVSAVKNMNLPEIPRNINIGDISIKVPNLPSFK [AP3S1]", "label value": "label 1"}
{"query sequence": "MGLLRIMMPPKLQLLAVVAFAVAMLFLENQIQKLEESRSKLERAIARHEVREIEQRHTMDGPRQDATLDEEEDMVIIYNRVPKTASTSFTNIAYDLCAKNKYHVLHINTTKNNPVMSLQDQVRFVKNITSWKEMKPGFYHGHVSYLDFAKFGVKKKPIYINVIRDPIERLVSYYYFLRFGDDYRPGLRRRKQGDKKTFDECVAEGGSDCAPEKLWLQIPFFCGHSSECWNVGSRWAMDQAKYNLINEYFLVGVTEELEDFIMLLEAALPRFFRGATELYRTGKKSHLRKTTEKKLPTKQTIAKLQQSDIWKMENEFYEFALEQFQFIRAHAVREKDGDLYILAQNFFYEKIYPKSN [HS2ST1]", "label value": "label 0"}
{"query sequence": "MRPGAPGPLWPLPWGALAWAVGFVSSMGSGNPAPGGVCWLQQGQEATCSLVLQTDVTRAECCASGNIDTAWSNLTHPGNKINLLGFLGLVHCLPCKDSCDGVECGPGKACRMLGGRPRCECAPDCSGLPARLQVCGSDGATYRDECELRAARCRGHPDLSVMYRGRCRKSCEHVVCPRPQSCVVDQTGSAHCVVCRAAPCPVPSSPGQELCGNNNVTYISSCHMRQATCFLGRSIGVRHAGSCAGTPEEPPGGESAEEEENFV [FSTL3]", "label value": "label 1"}
{"query sequence": "MVIRVYIASSSGSTAIKKKQQDVLGFLEANKIGFEEKDIAANEENRKWMRENVPENSRPATGYPLPPQIFNESQYRGDYDAFFEARENNAVYAFLGLTAPPGSKEAEVQAKQQA [SH3BGRL]", "label value": "label 0"}
{"query sequence": "MADHSFSDGVPSDSVEAAKNASNTEKLTDQVMQNPRVLAALQERLDNVPHTPSSYIETLPKAVKRRINALKQLQVRCAHIEAKFYEEVHDLERKYAALYQPLFDKRREFITGDVEPTDAESEWHSENEEEEKLAGDMKSKVVVTEKAAATAEEPDPKGIPEFWFTIFRNVDMLSELVQEYDEPILKHLQDIKVKFSDPGQPMSFVLEFHFEPNDYFTNSVLTKTYKMKSEPDKADPFSFEGPEIVDCDGCTIDWKKGKNVTVKTIKKKQKHKGRGTVRTITKQVPNESFFNFFNPLKASGDGESLDEDSEFTLASDFEIGHFFRERIVPRAVLYFTGEAIEDDDNFEEGEEGEEEELEGDEEGEDEDDAEINPKV [NAP1L4]", "label value": "label 1"}
